Target: rat nerve growth factor (beta-NGF) (rat, UniProt P25427 122-241)
Sequence (P25427 122-241): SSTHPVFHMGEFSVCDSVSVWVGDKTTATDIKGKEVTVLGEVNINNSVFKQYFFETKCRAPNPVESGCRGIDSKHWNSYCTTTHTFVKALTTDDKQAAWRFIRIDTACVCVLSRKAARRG
Test: cell-based or functional assay
# key: entry, value: IC50, PC12 cell survival
Answer with a number only, understood to be in nM.

Ask: Reported IC50, PC12 cell survival for 1152H5 human IgG4 (antibody, V domains shown) VH: EVQLVQSGAEVKKPGSSVKVSCKASGGTFSTYGISWVRQAPGQGLVWIGGIIPIFDTGNSAQSFQGRVTITADESTSTAYMEVSSLRSDDTAVYYCASSSRIYDMISSLQPYYDMDVWGQGTMVTVSS VL: QAVLTQPSSVSTPPGQKATISCSGSSSNIGNNYVSWYQQLPGTAPKLLIYDNNKRPSGIPDRFSGSKSGTSATLGITGLQTGDEADYYCGTWDSSLSAWVFGGGTKLTVL : what is it?
Reply: 0.38

Ask: Reported IC50, PC12 cell survival for 1252A5 IgG4 (antibody, V domains shown, tested as whole human IgG4; also called germlined 1133C11) VH: QVQLVQSGAEVKKPGSSVKVSCKASGGTFSTYGISWVRQAPGQGLEWMGGIIPIFDTGNSAQSFQGRVTITADESTSTAYMELSSLRSEDTAVYYCARSSRIYDLNPSLTAYYDMDVWGQGTMVTVSS VL: QSVLTQPPSVSAAPGQKVTISCSGSSSNIGNNYVSWYQQLPGTAPKLLIYDNNKRPSGIPDRFSGSKSGTSATLGITGLQTGDEADYYCGTWDSSLSAWVFGGGTKLTVL : what is it?
Reply: 2.7

Ask: Reported IC50, PC12 cell survival for G1230H7 human IgG4 (antibody, V domains shown) VH: QVQLVQSGAEVKKPGSSVKVSCKASGGTFSTYGISWVRQAPGQGLEWMGGIIPIFDTGNSAQSFQGRVTITADESTSTAYMELSSLRSEDTAVYYCARSSRIYDFNSALISYYDMDVWGQGTMVTVSS VL: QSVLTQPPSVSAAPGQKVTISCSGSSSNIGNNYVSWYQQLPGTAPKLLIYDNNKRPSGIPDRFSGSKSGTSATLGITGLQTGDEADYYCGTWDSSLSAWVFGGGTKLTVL : what is it?
Reply: 7.5
